The reported measurements were obtained from patent US9637483B2.

The entries below come with measured inhibition at 1 µM values attached.
TESTED TARGET: JAK2 (Homo sapiens)
Construct: purchased Invitrogen
Sequence (O60674 whole entry): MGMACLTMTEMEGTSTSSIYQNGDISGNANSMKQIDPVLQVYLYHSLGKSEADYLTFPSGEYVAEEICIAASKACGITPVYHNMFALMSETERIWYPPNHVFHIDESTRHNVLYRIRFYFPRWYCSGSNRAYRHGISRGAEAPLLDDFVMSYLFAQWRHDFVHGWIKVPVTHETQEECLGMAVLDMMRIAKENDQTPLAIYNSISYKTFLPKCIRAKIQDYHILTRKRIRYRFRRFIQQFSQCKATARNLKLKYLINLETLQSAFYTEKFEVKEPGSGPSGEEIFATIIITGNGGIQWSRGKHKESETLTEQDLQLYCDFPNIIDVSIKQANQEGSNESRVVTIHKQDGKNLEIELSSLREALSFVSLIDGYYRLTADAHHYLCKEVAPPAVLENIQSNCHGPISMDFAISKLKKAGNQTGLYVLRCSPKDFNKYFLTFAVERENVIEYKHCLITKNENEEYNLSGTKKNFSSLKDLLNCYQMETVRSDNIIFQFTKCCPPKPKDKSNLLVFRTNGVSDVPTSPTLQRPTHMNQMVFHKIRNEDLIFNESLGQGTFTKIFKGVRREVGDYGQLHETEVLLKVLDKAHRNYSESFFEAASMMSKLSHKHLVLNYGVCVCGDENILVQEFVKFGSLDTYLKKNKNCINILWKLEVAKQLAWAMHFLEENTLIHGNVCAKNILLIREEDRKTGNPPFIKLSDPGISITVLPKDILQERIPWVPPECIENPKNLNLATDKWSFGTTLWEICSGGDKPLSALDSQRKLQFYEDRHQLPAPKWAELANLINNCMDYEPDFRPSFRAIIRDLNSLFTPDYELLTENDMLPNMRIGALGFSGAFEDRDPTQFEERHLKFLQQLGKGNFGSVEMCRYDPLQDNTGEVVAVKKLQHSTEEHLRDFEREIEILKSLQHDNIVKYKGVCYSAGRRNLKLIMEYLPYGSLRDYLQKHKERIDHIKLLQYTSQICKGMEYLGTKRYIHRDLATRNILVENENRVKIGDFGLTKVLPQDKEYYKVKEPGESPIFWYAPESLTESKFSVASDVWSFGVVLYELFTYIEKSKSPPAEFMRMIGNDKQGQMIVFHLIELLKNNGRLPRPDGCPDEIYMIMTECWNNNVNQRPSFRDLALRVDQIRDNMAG
EXPERIMENT SUMMARY: JAK2 enzyme inhibition test (LANCE method)
Type: biochemical
CONDITION DETAILS: 1 μM test compound; read-out: JAK2 enzyme inhibitory activity (%, 1 μM)

[
  {
    "MOLECULE": "Cn1nc(-c2cn(C(C3CC3)C3CC3)c(=O)c3c(N)n[nH]c23)cc1C1CCCCC1",
    "inhibition at 1 µM (%)": 101
  },
  {
    "MOLECULE": "COC(C)(C)c1cc(-c2cn(-c3c(F)cccc3C#N)c(=O)c3c(N)n[nH]c23)nn1C",
    "inhibition at 1 µM (%)": 98
  },
  {
    "MOLECULE": "Cn1nc(-c2cn(-c3c(F)cccc3C#N)c(=O)c3c(N)n[nH]c23)cc1N1CCOCC1",
    "inhibition at 1 µM (%)": 97
  },
  {
    "MOLECULE": "CC(=O)N1CCN(c2cc(-c3cn([C@@H](C)C(C)C)c(=O)c4c(N)n[nH]c34)nn2C)CC1",
    "inhibition at 1 µM (%)": 99
  },
  {
    "MOLECULE": "CC(C)N(C)c1cc(-c2cn(-c3c(F)cccc3C#N)c(=O)c3c(N)n[nH]c23)nn1C",
    "inhibition at 1 µM (%)": 93
  },
  {
    "MOLECULE": "Cn1nc(-c2cn(C(C3CC3)C3CC3)c(=O)c3c(N)n[nH]c23)cc1N1CCC[C@@H]1CN1CCCC1",
    "inhibition at 1 µM (%)": 99
  },
  {
    "MOLECULE": "CC1CCCCC1n1cc(-c2cc(C(C)(C)O)n(C)n2)c2[nH]nc(N)c2c1=O (racemic) [Example 116]",
    "inhibition at 1 µM (%)": 100
  },
  {
    "MOLECULE": "CN1CCN(c2cc(-c3cn(-c4c(F)cccc4C#N)c(=O)c4c(N)n[nH]c34)nn2C)CC1",
    "inhibition at 1 µM (%)": 96
  },
  {
    "MOLECULE": "CC(C)[C@H](C)n1cc(-c2cc(N3CCOC(C)(C)C3)n(C)n2)c2[nH]nc(N)c2c1=O",
    "inhibition at 1 µM (%)": 99
  },
  {
    "MOLECULE": "Cn1nc(-c2cn(C(C3CC3)C3CC3)c(=O)c3c(N)n[nH]c23)cc1N1CCC[C@H]1CO",
    "inhibition at 1 µM (%)": 94
  },
  {
    "MOLECULE": "C[C@@H](C1CC1)n1cc(-c2cc(N3CCC(C)(O)CC3)n(C)n2)c2[nH]nc(N)c2c1=O",
    "inhibition at 1 µM (%)": 99
  },
  {
    "MOLECULE": "Cn1nc(-c2cn(C(C3CC3)C3CC3)c(=O)c3c(N)n[nH]c23)cc1N1CCS(=O)(=O)CC1",
    "inhibition at 1 µM (%)": 99
  },
  {
    "MOLECULE": "COC1(c2cc(-c3cn(C(C4CC4)C4CC4)c(=O)c4c(N)n[nH]c34)nn2C)CN(C(=O)C(C)C)C1",
    "inhibition at 1 µM (%)": 99
  },
  {
    "MOLECULE": "CC(=O)N(C)C[C@H]1CCCN1c1cc(-c2cn(C(C3CC3)C3CC3)c(=O)c3c(N)n[nH]c23)nn1C",
    "inhibition at 1 µM (%)": 97
  },
  {
    "MOLECULE": "COC1(c2cc(-c3cn(C(C#N)C(C)C)c(=O)c4c(N)n[nH]c34)nn2C)CCC(F)(F)CC1 (stereo not drawn)",
    "inhibition at 1 µM (%)": 99
  },
  {
    "MOLECULE": "CN(C)C[C@H]1CCCN1c1cc(-c2cn(C(C3CC3)C3CC3)c(=O)c3c(N)n[nH]c23)nn1C",
    "inhibition at 1 µM (%)": 98
  },
  {
    "MOLECULE": "COC1(c2cc(-c3cn([C@@H](C)C4CC4)c(=O)c4c(N)n[nH]c34)nn2C)CN(C(=O)C(C)C)C1",
    "inhibition at 1 µM (%)": 99
  },
  {
    "MOLECULE": "Cn1nc(-c2cn(C(C3CC3)C3CC3)c(=O)c3c(N)n[nH]c23)cc1N1CC[C@@H](O)C1",
    "inhibition at 1 µM (%)": 98
  },
  {
    "MOLECULE": "CC1CN(c2cc(-c3cn([C@@H](C)C(C)C)c(=O)c4c(N)n[nH]c34)nn2C)CCO1 (stereo partly drawn)",
    "inhibition at 1 µM (%)": 98
  },
  {
    "MOLECULE": "COC1(c2cc(-c3cn(C(C4CC4)C4CC4)c(=O)c4c(N)n[nH]c34)nn2C)CN(S(=O)(=O)C(C)C)C1",
    "inhibition at 1 µM (%)": 99
  },
  {
    "MOLECULE": "CN(C[C@H]1CCCN1c1cc(-c2cn(C(C3CC3)C3CC3)c(=O)c3c(N)n[nH]c23)nn1C)S(C)(=O)=O",
    "inhibition at 1 µM (%)": 98
  },
  {
    "MOLECULE": "CC(C)[C@H](C)n1cc(-c2cc(C(C)(C)O)n(C)n2)c2[nH]nc(N)c2c1=O",
    "inhibition at 1 µM (%)": 98
  },
  {
    "MOLECULE": "CC(C)[C@H](C)n1cc(-c2cc(N3CCC(C(C)(C)O)CC3)n(C)n2)c2[nH]nc(N)c2c1=O",
    "inhibition at 1 µM (%)": 99
  },
  {
    "MOLECULE": "CCOC(=O)C(C(C)C)n1cc(-c2cc(N3CCOCC3)n(C)n2)c2[nH]nc(N)c2c1=O (stereo not drawn)",
    "inhibition at 1 µM (%)": 87
  },
  {
    "MOLECULE": "Cn1nc(-c2cn(-c3c(F)cccc3C#N)c(=O)c3c(N)n[nH]c23)cc1C1CCOCC1",
    "inhibition at 1 µM (%)": 96
  },
  {
    "MOLECULE": "CC(C)[C@H](C)n1cc(-c2cc(N3CCS(=O)(=O)CC3)n(C)n2)c2[nH]nc(N)c2c1=O",
    "inhibition at 1 µM (%)": 99
  },
  {
    "MOLECULE": "CC(C)[C@H](C)n1cc(-c2cc(C3(O)CCOCC3)n(C)n2)c2[nH]nc(N)c2c1=O",
    "inhibition at 1 µM (%)": 99
  },
  {
    "MOLECULE": "COCCN(C)C(=O)c1cc(-c2cn([C@@H](C)C(C)C)c(=O)c3c(N)n[nH]c23)nn1C",
    "inhibition at 1 µM (%)": 98
  },
  {
    "MOLECULE": "CC(C)[C@H](C)n1cc(-c2cc(C(C)(C)C(=O)N(C)C)n(C)n2)c2[nH]nc(N)c2c1=O",
    "inhibition at 1 µM (%)": 94
  },
  {
    "MOLECULE": "COC1(c2cc(-c3cn([C@@H](C)C(C)C)c(=O)c4c(N)n[nH]c34)nn2C)CN(S(=O)(=O)C(C)C)C1",
    "inhibition at 1 µM (%)": 98
  }
]
